tested-target: H1047R PIK3CA enzyme (Homo sapiens, UniProt P42336, H1047R)
Sequence (P42336 whole entry H1047R): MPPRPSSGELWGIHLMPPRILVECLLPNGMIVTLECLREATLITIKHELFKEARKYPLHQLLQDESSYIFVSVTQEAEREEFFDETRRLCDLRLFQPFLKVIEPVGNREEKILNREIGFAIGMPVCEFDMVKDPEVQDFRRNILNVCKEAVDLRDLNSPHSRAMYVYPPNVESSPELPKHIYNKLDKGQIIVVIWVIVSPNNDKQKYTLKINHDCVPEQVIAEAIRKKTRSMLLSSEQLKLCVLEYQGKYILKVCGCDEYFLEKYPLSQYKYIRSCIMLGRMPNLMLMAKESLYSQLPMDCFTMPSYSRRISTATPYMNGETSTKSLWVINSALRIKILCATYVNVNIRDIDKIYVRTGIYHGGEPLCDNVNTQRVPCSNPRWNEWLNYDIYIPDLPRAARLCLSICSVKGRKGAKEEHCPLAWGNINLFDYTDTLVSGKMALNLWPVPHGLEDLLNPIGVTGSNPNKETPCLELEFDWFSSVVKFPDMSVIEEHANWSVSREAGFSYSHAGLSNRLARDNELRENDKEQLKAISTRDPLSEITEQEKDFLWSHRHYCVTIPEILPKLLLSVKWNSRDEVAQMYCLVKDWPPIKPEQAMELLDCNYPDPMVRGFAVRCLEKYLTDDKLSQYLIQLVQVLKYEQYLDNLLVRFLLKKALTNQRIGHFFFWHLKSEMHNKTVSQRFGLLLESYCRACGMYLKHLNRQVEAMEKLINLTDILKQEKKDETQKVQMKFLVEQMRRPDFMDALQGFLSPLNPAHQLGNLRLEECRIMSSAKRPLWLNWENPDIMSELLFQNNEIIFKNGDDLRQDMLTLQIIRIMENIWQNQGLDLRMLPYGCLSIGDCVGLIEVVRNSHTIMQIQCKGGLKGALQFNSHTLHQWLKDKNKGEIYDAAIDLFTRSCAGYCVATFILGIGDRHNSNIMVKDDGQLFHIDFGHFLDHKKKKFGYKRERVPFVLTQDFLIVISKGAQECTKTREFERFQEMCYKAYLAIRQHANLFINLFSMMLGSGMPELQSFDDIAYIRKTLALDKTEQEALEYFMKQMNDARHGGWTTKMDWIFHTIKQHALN
Sequence (P27986 whole entry partner): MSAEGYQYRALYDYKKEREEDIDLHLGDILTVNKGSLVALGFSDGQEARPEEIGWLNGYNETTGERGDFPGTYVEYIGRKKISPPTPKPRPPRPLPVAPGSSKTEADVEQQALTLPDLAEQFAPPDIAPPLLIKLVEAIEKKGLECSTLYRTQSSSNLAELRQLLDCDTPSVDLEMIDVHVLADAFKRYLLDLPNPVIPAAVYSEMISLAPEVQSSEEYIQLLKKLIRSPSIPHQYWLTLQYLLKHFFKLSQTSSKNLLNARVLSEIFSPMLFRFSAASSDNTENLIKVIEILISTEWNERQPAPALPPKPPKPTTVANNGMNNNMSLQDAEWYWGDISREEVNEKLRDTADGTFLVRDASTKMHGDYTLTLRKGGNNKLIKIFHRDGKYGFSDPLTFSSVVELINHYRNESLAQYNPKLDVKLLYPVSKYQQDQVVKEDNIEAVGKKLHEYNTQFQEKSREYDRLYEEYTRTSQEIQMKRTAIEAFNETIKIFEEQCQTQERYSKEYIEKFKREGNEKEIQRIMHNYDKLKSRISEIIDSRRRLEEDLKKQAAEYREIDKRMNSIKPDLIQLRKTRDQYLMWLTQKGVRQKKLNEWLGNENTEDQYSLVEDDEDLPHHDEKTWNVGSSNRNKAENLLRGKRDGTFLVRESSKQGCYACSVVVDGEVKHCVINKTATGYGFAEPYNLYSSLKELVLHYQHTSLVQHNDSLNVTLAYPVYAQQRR
test-protocol: ADP-Glo Biochemical PIK3CA Kinase Assay
condition-label: ADP-Glo biochemical PIK3CA kinase assay
readout: IC50

>>> meas_value("Cc1ccccc1Nc1nnccc1NC(=O)c1csc2ccccc12")
"1 to 10 µM"
>>> meas_value("Cc1ccn2c(CNC(=O)c3cnc(Nc4ccccc4C)c(NC(=O)c4csc5ccccc45)c3)nnc2c1")
"0.1 to 0.5 µM"
>>> meas_value("CNC(=O)c1cnc(Nc2ccccc2C)c(NC(=O)CCc2cc(Br)ccc2F)c1")
"10 to 100 µM"

Asked: Form: Entry = CNC(=O)c1cnc(Nc2ccccc2C)c(NC(=O)c2cn(C)c3ncccc23)c1 | System = H1047R PIK3CA enzyme (Homo sapiens, UniProt P42336, H1047R) | IC50 = ____
Given back: 10 to 100 µM

Asked: Form: Entry = Cc1ccccc1Nc1ncc(C(=O)NCC(C)(C)O)cc1NC(=O)c1csc2ccccc12 | System = H1047R PIK3CA enzyme (Homo sapiens, UniProt P42336, H1047R) | IC50 = ____
Given back: 1 to 10 µM

Asked: Form: Entry = CNC(=O)c1cnc(Nc2ccccc2C)c(NC(=O)C2(c3ccccc3Cl)CC2)c1 | System = H1047R PIK3CA enzyme (Homo sapiens, UniProt P42336, H1047R) | IC50 = ____
Given back: ≤ 0.1 µM

Asked: Form: Entry = Cc1ccccc1CNc1cccc(=O)n1Cc1ccccc1C | System = H1047R PIK3CA enzyme (Homo sapiens, UniProt P42336, H1047R) | IC50 = ____
Given back: 10 to 100 µM

Asked: Form: Entry = Cc1ccccc1Nc1ncc(C(=O)N2CC3(COC3)C2)cc1NC(=O)c1csc2ccccc12 | System = H1047R PIK3CA enzyme (Homo sapiens, UniProt P42336, H1047R) | IC50 = ____
Given back: 1 to 10 µM

* * *

tested-target: H1047R PIK3CA enzyme (Homo sapiens, UniProt P42336, H1047R)
test-protocol: ADP-Glo Biochemical PIK3CA Kinase Assay
pIC50: −log10 of the molar value.
readout: pIC50

// known answers, use as guide
>>> meas_value("CNC(=O)c1cnc(Nc2cccc(F)c2)c(NC(=O)c2cc(F)cc(C(F)(F)F)c2)c1")
"4.00 to 5.00"
>>> meas_value("O=C(Nc1cccnc1NCc1ccccc1)c1csc2ccccc12")
"4.00 to 5.00"

Asked: So what's the measured pIC50 for this one? CNC(=O)c1cnc(Nc2ccccc2C)c(NC(=O)Cc2cccc(Cl)c2)c1
Given back: 4.00 to 5.00

Asked: So what's the measured pIC50 for this one? Cc1ccccc1Nc1ncc(-c2cncnc2)cc1NC(=O)c1cc(F)cc(C(F)(F)F)c1
Given back: 6.30 to 7.00

Asked: So what's the measured pIC50 for this one? CNC(=O)c1cnc(Nc2ccccc2C)c(NC(=O)c2csc(Cl)c2Cl)c1
Given back: 4.00 to 5.00

Asked: So what's the measured pIC50 for this one? CNC(=O)c1cnc(Nc2cccc(C(C)(C)C)c2)c(NC(=O)c2cc(F)cc(C(F)(F)F)c2)c1
Given back: 5.00 to 6.00

Asked: So what's the measured pIC50 for this one? CNC(=O)c1cnc(Nc2ccccc2C)c(NC(=O)[C@H](N)C2CCCCC2)c1 (stereo in doubt)
Given back: 4.00 to 5.00

Asked: So what's the measured pIC50 for this one? CNC(=O)c1cnc(Nc2cc(F)ccc2Cl)c(NC(=O)c2cc(F)cc(C(F)(F)F)c2)c1
Given back: 4.00 to 5.00

Asked: So what's the measured pIC50 for this one? CNC(=O)c1cnc(NCCOC)c(NC(=O)c2cc(F)cc(C(F)(F)F)c2)c1
Given back: 4.00 to 5.00

Asked: So what's the measured pIC50 for this one? Cc1ccccc1N[C@H]1CCN(C(=O)CC2CCOCC2)C[C@@H]1C(=O)Nc1cc(F)cc(C(F)(F)F)c1 (racemic)
Given back: 4.00 to 5.00

Asked: So what's the measured pIC50 for this one? Cn1nccc1CNC(=O)c1cnc(N2CCCc3ccccc32)c(NC(=O)c2cc(F)cc(C(F)(F)F)c2)c1
Given back: 5.00 to 6.00
